Molecular target: CaMKIIδ (Homo sapiens (Human), UniProt Q13557)
Readout name: IC50

// query Entry N=C(N)Nc1cccc(-c2ccnc3[nH]c4ccccc4c23)c1 [Compound I-4] has what IC50?
// result 50 to 250 nM
